Assay: gradient 5% acetonitrile 3 min, to 50% in 2 min, to 85% in 15 min, held 3 min, 100 µL/min
Settings: column: Zorbax Extend-C18 2.1 x 50 mm; eluents: water / acetonitrile, 0.1% formic acid
Reported RP-LC retention time is given for each of the following compounds.
Readout Label: RP-LC retention time (s)

COCCNC(=O)Cn1c(C(F)(F)F)nc2cc3c(cc21)OCCO3	641
COCCN(Cc1ccc(Cl)cc1)Cc1cc(=O)n2ccccc2n1	635
O=C(NCCc1c[nH]c2ccccc12)C1CC(=O)N(c2n[nH]c3cccc(F)c23)C1 (stereo not given)	710
COc1ccc(/C=C2\CCc3ccccc3C2=O)cc1OC	994
CCOC(=O)C1CCC(CNC(=O)Nc2ccc(-c3nc(-c4cc(C)ccc4C)co3)cc2)CC1 (stereo not given)	1260
Cc1cc(NC(=O)C2CCN(C(=O)Cc3c(C)noc3C)CC2)no1	621
c1cc(-n2nnc3cnccc32)ccn1	637
CCOc1ccc(CC(=O)NC2CCN(c3cc(-c4cccs4)[nH]n3)C2)cc1OCC (stereo not given)	727
COC(=O)C1C(=O)C2=C(CC1C)NC(C)=C(C(=O)OCCOC(C)C)C2c1ccccc1F (stereo not given)	914
Cc1ccnc(NS(=O)(=O)c2ccc(N)cc2)n1	652
Cc1ccc(C)c(Sc2cc(N3CCC(C(=O)N4CCC(C(N)=O)CC4)CC3)ncn2)c1	652
CCOc1ccc(CN2C(=O)C3(CCOCC3)CC2c2nnnn2C(C)(C)C)cc1 (stereo not given)	833
CCOc1ncccc1CNC(=O)NCc1cccc(OC)c1	570
Cc1ccc(C(=O)N2CCc3nc(-c4ccc(Cl)cc4)ncc3C2)cc1F	1150
CN(C(=O)Cc1ccccc1)[C@H](CN1CCCC1)c1ccccc1	726
COc1ccc(N2CC(CNC(=O)Nc3c(F)cccc3F)CC2=O)cc1 (stereo not given)	658
Cc1nc2cccnc2n1CC1CCCN(S(=O)(=O)c2ccc(C(C)C)cc2)C1 (stereo not given)	817
Cc1nc(-c2csc(S(=O)(=O)N3CCC(C(=O)N4CCc5ccccc54)CC3)c2)no1	595
O=S(=O)(c1ccc(F)cc1)N1CC(F)(F)C[C@H]1CN1CCc2ccccc2C1	738
Cc1nnc(-c2c(S(=O)(=O)NC3CCN(Cc4ccccc4)CC3)c(C)n(C)c2C)o1	602
